Sourced from patent US20240415914A1

Recorded Stability in AB White, 8° C. (content by LCMSMS) by entry
Test: Stability of cannabinoid and Vitamin E components of Beverage 1 (AB White) stored at 8° C. and 21-25° C., LCMSMS over 570 days
Format: physicochemical
Details: beverage stored at 8° C., day 210
Measured endpoint: Stability in AB White, 8° C. (content by LCMSMS)

INSERT INTO measurements (compound, reported_value) VALUES
  ('CCCCCc1cc(O)c2c(c1)OC(C)(C)[C@@H]1CCC(C)=C[C@@H]21 [D9 THC, delta-9-tetrahydrocannabinol, reference compound]', '11.79 µg/mL'),
  ('CCCc1cc(O)c2c(c1)OC(C)(C)[C@@H]1CCC(C)=C[C@@H]21 [THCV, delta-9-tetrahydrocannabivarin]', '3.44 µg/mL'),
  ('C=C(C)[C@@H]1CCC(C)=C[C@H]1c1c(O)cc(CCCCC)c(C(=O)O)c1O', '1.68 µg/mL');
